system: VERO E6 cells; conditions: read-out: CC50 Mean ± SD, DAA

[
  {
    "COMPOUND": "O=c1nc(NO)ccn1[C@@H]1O[C@H](CO)[C@@H](O)[C@H]1O [EIDD-1931, reference compound]",
    "UNIT_NAME": "µM",
    "CC50": 43.3
  }
]

The values you see were collected from paper PMC10892871.
